biological target: PI3kδ (Homo sapiens); test: Fluorescent (HTRF) determination of PI3 kinase enzyme activity, PI3Kδ; format: biochemical; conditions: 300 nM (Examples 1-59)
Sequence (O00329 whole entry): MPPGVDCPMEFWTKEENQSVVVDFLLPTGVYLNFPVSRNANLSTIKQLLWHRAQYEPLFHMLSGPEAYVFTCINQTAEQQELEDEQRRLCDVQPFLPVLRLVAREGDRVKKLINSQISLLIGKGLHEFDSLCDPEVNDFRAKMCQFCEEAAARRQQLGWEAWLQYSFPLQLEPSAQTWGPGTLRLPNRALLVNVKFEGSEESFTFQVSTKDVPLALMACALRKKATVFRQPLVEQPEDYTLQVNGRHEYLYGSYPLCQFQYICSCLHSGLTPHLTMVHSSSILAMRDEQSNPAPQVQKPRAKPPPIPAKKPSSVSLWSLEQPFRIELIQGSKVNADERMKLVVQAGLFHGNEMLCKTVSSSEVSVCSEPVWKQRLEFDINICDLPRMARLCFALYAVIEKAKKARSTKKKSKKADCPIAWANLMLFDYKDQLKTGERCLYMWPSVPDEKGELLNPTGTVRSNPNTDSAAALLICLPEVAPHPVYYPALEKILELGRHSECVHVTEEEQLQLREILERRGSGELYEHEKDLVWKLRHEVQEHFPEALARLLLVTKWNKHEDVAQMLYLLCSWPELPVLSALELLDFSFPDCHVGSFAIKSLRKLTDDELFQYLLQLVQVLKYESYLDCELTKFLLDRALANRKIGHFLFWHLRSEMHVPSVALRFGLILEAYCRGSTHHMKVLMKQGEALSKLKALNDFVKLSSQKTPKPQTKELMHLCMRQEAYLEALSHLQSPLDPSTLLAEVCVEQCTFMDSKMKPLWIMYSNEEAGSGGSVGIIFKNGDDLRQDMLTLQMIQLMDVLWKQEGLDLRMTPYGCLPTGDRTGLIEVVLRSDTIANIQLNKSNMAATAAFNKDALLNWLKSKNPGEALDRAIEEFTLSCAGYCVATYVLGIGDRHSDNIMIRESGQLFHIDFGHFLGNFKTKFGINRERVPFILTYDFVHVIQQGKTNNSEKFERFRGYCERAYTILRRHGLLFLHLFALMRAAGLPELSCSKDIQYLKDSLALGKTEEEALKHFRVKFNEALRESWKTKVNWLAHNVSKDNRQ
Sequence (P27986 whole entry partner): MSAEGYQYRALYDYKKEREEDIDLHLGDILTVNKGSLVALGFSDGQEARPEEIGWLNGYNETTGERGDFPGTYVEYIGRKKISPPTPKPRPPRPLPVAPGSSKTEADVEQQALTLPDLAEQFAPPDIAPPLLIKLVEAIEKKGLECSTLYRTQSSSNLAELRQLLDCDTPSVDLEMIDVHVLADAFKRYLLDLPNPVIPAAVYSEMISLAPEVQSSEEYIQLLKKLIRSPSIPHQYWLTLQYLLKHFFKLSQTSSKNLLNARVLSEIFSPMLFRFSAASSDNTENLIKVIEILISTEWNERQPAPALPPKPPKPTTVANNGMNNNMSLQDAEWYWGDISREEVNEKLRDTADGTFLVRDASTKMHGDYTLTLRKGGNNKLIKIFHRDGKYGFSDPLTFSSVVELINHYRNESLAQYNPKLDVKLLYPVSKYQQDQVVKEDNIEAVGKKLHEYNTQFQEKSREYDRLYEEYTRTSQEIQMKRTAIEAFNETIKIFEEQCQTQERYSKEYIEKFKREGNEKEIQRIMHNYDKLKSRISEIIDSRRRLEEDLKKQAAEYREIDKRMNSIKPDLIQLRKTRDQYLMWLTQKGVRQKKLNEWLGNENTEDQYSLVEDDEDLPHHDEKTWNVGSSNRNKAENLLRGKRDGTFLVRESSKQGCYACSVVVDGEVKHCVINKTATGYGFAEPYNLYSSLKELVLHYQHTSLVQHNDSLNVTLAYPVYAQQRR
recorded-metric: inhibition at 0.3 µM

| molecule | experimental-system | inhibition at 0.3 µM |
| --- | --- | --- |
| CC(c1oc2cccc(F)c2c(=O)c1-c1cccc(F)c1)n1nc(-c2ccc(OC(F)F)c(F)c2)c2c(N)ncnc21 (centres unmarked) [Example 17] | PI3kδ (Homo sapiens) | 75 to 100% |
| CC(c1oc2cccc(F)c2c(=O)c1-c1cccc(F)c1)n1nc(-c2ccc(OC3CN(C(c4ccccc4)c4ccccc4)C3)c(F)c2)c2c(N)ncnc21 (centres unmarked) [Example 44] | PI3kδ (Homo sapiens) | 25 to 50% |
| CC(c1oc2cccc(F)c2c(=O)c1-c1ccccc1)n1nc(-c2ccc(OC(F)F)c(F)c2)c2c(N)ncnc21 (centres unmarked) [Example 32] | PI3kδ (Homo sapiens) | 0 to 25% |
| CC(C)Oc1ccc(-c2nn(C(C)c3oc4cccc(F)c4c(=O)c3-c3cccc(F)c3)c3ncnc(N)c23)cc1F (centres unmarked) [Example 6] | PI3kδ (Homo sapiens) | 75 to 100% |
| Nc1ncnc2c1c(-c1cc(O)cc(F)c1)nn2Cc1oc2cccc(F)c2c(=O)c1-c1cccc(F)c1 [Example 5] | PI3kδ (Homo sapiens) | 50 to 75% |
| CC(c1oc2cccc(F)c2c(=O)c1-c1cccc(F)c1)n1nc(N2CCCCC2)c2c(N)ncnc21 (centres unmarked) [Example 39] | PI3kδ (Homo sapiens) | 25 to 50% |

Please look up its inhibition at 0.3 µM: CC(c1oc2cccc(F)c2c(=O)c1-c1cccc(F)c1)n1nc(-c2ccc(OC(F)(F)F)c(F)c2)c2c(N)ncnc21 (centres unmarked) [Example 45] 50 to 75%

Please look up its inhibition at 0.3 µM: CC(C)Oc1ccc(-c2nn(Cc3oc4cccc(F)c4c(=O)c3-c3cccc(F)c3)c3ncnc(N)c23)cc1F [Example 3] 50 to 75%
